molecular target: Alpha glucosidase (Homo sapiens, UniProt O43451+P10253+P14410+Q2M2H8); assay: Inhibition of alpha-glucosidase (unknown origin) at 100 uM; format: protein assay
assayEndpoint: inhibition (%)

1. COc1cc(OC/C=C(\C)C/C=C(\C)CC=C(C)C)c2c(=O)c3c(O)ccc(OC)c3oc2c1 : 66.2
2. CC(C)=CCOc1cc(O)c2c(=O)c3ccccc3oc2c1 : 31
3. CC(C)=CC/C(C)=C/COc1cc(O)c2c(=O)c3ccccc3oc2c1 : 43.1
4. COc1cc(OC/C=C(\C)CC=C(C)C)c2c(=O)c3c(O)ccc(OC)c3oc2c1 : 30.9
5. COc1cc(OC/C=C(\C)C/C=C(\C)C/C=C(\C)C/C=C(\C)C/C=C(\C)C/C=C(\C)C/C=C(\C)C/C=C(\C)CC=C(C)C)c2c(=O)c3c(O)ccc(OC)c3oc2c1 : 34.5
6. COc1cc(OCC=C(C)C)c2c(=O)c3c(O)ccc(OC)c3oc2c1 : 42.1
